tested.on: human muscarinic M3 receptor (Homo sapiens)
Construct: expressed in transfected cells; host or cells: CHO (CHO-K1) cells
Sequence (P20309 whole entry): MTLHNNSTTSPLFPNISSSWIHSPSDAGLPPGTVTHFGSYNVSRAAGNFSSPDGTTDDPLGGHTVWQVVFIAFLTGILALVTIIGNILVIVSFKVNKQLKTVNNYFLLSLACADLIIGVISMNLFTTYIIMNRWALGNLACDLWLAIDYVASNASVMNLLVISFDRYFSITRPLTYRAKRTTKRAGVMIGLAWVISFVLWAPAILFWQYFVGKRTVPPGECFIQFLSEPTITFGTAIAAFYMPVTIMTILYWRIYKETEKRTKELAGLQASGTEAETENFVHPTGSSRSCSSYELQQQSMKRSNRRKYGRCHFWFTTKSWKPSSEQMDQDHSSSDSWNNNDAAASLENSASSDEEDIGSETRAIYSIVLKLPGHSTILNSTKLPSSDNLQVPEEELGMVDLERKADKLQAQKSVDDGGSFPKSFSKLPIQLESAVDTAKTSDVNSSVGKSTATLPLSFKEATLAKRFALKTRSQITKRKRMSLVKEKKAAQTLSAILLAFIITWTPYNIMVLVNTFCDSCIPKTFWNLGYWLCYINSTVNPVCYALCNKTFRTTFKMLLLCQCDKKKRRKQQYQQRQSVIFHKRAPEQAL
protocol.notes: hM3 competition binding assay (3H-NMS, CHO cell membranes)
cond: CHO cell membranes expressing human M3; 3H-NMS at 5×KD, 24 hr at RT; IC50 corrected by Cheng-Prussoff
Threshold 1 nM. Ki below it: Fulfilled. Ki at it or above: Not fulfilled.

CN(CCCCCCCCCN1CCC(OC(=O)Nc2ccccc2-c2ccccc2)CC1)C(=O)c1ccc(F)cc1O :: Fulfilled
O=C(Nc1ccccc1-c1ccccc1)OC1CCN(CCCCCCCCCNCc2cccc(O)c2F)CC1 :: Not fulfilled
O=C(Nc1ccccc1-c1ccccc1)OC1CCN(CCCCCCCCCNC(=O)c2cccc(F)c2O)CC1 :: Not fulfilled
CN(CCCCCCCCCN1CCC(OC(=O)Nc2ccccc2-c2ccccc2)CC1)Cc1cc(F)cc(Cl)c1O :: Fulfilled
O=C(Nc1ccccc1-c1ccccc1)OC1CCN(CCCCCCCCCNCc2cc(F)c(O)c(F)c2)CC1 :: Not fulfilled

Read the next record carefully.
For CN(CCCCCCCCCN1CCC(OC(=O)Nc2ccccc2-c2ccccc2)CC1)C(=O)c1ccc(O)cc1F , is the recorded Ki below the cut-off of 1 nM?
Not fulfilled
